Assay System: extracellular matrix (ECM) proteins
Procedure Text: ECM plate ELISA (Matrigel), 1 uM antibody, A450 over wells without sample
Measurement Name: ECM Score (1 µM)
Answer field: number only, no words.

Give reported ECM Score (1 µM) value for hz13-1 (antibody, V domains shown, light constant region not tied to this antibody) VH: EVQLVQSGAEVKKPGASVKVSCTSSDFNIKDHFIHWVRQAPGKGLEWMGRIDPEDDETKYAPKFQDRVTMTADTSTDTAYMELSSLRSEDTAVYYCAGYGNYEGAMDYWGQGTLVTVSS VL: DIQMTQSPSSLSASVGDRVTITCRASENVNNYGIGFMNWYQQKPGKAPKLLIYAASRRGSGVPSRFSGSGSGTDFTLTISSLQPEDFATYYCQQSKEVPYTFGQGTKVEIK 1

Give reported ECM Score (1 µM) value for hz13-3 (antibody, V domains shown, light constant region not tied to this antibody) VH: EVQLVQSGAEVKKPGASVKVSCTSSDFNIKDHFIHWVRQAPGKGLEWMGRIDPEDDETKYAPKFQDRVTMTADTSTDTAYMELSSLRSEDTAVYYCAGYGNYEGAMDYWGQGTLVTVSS VL: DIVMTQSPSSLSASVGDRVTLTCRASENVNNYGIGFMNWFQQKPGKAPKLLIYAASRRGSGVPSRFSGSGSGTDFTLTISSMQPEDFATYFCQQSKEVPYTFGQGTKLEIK 1

Give reported ECM Score (1 µM) value for hz13-12 (antibody, IgG1, V domains shown, also called clone 13-based hz13-12 antibody) VH: EVQLVQSGAEVKKPGATVKISCTSSDFNIKDHFIHWVQQAPGKGLEWMGRIDPEDDETKYAPKFQDRVTITADTSTDTAYMELSSLRSEDTAVYYCAGYGNYEGAMDYWGQGTTVTVSS VL: DVVMTQSPLSLPVTLGQPASISCRASENVNNYGIGFMNWFQQRPGQSPRLLIYAASRRGSGVPDRFSGSGSGTDFTLKISRVEEEDVGVYYCQQSKEVPYTFGGGTKVEIK 1
